- assaySystem: Phosphatidylinositol 4,5-bisphosphate 3-kinase catalytic subunit alpha isoform (Homo sapiens, UniProt P42336)
- Sequence (P42336 whole entry, canonical isoform): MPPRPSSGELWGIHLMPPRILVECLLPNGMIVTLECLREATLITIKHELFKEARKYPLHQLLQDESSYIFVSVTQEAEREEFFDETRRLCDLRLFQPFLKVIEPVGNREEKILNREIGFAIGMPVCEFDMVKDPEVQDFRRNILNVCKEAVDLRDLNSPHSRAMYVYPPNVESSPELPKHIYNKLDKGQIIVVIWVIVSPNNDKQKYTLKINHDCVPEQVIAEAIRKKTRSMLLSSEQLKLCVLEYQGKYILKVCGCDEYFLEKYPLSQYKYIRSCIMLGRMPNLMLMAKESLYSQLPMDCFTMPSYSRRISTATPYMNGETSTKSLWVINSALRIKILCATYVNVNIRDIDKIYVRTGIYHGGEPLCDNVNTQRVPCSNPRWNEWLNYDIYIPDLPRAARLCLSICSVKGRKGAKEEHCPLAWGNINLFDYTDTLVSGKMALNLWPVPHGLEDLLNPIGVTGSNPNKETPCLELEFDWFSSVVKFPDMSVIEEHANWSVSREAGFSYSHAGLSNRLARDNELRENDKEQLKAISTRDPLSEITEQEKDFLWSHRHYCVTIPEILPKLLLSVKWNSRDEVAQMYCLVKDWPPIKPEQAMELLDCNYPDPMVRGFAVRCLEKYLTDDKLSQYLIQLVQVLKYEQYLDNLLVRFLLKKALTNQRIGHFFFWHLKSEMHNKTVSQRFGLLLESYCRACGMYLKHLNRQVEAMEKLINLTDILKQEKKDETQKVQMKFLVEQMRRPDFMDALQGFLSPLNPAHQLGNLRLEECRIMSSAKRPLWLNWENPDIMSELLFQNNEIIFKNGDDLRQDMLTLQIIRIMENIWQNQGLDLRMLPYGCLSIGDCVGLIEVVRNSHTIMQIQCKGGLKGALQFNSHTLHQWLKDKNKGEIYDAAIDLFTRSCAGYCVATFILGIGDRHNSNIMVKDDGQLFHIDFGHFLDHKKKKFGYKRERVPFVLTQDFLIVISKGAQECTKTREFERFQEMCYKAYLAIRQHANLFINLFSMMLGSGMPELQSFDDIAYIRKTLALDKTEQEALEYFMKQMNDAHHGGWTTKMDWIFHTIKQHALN
- measurementProtocol: Inhibition of PI3Kalpha by high throughput chemoproteomics binding assay
measureName: IC50

A selection of reference data follows.
> print(dat)
                               smilesrecord  measurename  resultvalue
1  CC(=O)Nc1nc2ccc(-c3cccc(-c4ccccc4)c3)cn2n1         IC50      > 20 µM
2  CCCCNS(=O)(=O)c1cccc(-c2ccc3nc(NC(C)=O)nn3c2)c1         IC50        10 µM
3  CC(C)(C)NS(=O)(=O)c1cncc(-c2cc(F)c3nc(N)nn3c2)c1         IC50      > 10 µM
4  Nc1nc2ccc(-c3cncc(S(=O)(=O)NCC4CC4)c3)cn2n1         IC50      3.16 µM
5  CC(=O)Nc1nc2ccc(-c3ccc(S(C)(=O)=O)cc3)cn2n1         IC50     > 100 µM
6  CC(=O)Nc1nc2ccc(-c3cncc(CS(N)(=O)=O)c3)cn2n1         IC50     > 0.1 µM

Input `COc1ccc(-c2ccc3nc(NC(C)=O)nn3c2)cc1` , output reported IC50.
25.1 µM

Input `COc1ccc(-c2ccc3nc(NC(C)=O)nn3c2)cc1OC` , output reported IC50.
0.316 µM

Input `CNS(=O)(=O)c1cccc(-c2ccc3nc(NC(C)=O)nn3c2)c1` , output reported IC50.
> 10 µM

Input `CC(=O)Nc1nc2ccc(-c3cnn(C)c3)cn2n1` , output reported IC50.
> 63.1 µM

Input `CC(=O)Nc1nc2ccc(-c3cccc(S(C)(=O)=O)c3)cn2n1` , output reported IC50.
> 50.1 µM

* * *

The entries below come with measured half-life values attached.
- measurementProtocol: Half life in mouse microsomes
- Assay type: ADME, Microsome

A selection of reference data follows.
> print(dat)
                               smilesrecord  measurename  resultvalue
1  CC(C)(C)NS(=O)(=O)c1cncc(-c2ccc3nc(N)nn3c2)c1    half-life     > 45 min
2  CC(C)NS(=O)(=O)c1cncc(-c2ccc3nc(N)nn3c2)c1    half-life     > 45 min

Here is the next item to consider.
Input `CC(=O)Nc1nc2ccc(-c3cncc(S(C)(=O)=O)c3)cn2n1` , output reported half-life.
> 45 min

* * *

- assaySystem: Phosphatidylinositol 4,5-bisphosphate 3-kinase catalytic subunit gamma isoform (Homo sapiens, UniProt P48736)
- Sequence (P48736 whole entry, canonical isoform): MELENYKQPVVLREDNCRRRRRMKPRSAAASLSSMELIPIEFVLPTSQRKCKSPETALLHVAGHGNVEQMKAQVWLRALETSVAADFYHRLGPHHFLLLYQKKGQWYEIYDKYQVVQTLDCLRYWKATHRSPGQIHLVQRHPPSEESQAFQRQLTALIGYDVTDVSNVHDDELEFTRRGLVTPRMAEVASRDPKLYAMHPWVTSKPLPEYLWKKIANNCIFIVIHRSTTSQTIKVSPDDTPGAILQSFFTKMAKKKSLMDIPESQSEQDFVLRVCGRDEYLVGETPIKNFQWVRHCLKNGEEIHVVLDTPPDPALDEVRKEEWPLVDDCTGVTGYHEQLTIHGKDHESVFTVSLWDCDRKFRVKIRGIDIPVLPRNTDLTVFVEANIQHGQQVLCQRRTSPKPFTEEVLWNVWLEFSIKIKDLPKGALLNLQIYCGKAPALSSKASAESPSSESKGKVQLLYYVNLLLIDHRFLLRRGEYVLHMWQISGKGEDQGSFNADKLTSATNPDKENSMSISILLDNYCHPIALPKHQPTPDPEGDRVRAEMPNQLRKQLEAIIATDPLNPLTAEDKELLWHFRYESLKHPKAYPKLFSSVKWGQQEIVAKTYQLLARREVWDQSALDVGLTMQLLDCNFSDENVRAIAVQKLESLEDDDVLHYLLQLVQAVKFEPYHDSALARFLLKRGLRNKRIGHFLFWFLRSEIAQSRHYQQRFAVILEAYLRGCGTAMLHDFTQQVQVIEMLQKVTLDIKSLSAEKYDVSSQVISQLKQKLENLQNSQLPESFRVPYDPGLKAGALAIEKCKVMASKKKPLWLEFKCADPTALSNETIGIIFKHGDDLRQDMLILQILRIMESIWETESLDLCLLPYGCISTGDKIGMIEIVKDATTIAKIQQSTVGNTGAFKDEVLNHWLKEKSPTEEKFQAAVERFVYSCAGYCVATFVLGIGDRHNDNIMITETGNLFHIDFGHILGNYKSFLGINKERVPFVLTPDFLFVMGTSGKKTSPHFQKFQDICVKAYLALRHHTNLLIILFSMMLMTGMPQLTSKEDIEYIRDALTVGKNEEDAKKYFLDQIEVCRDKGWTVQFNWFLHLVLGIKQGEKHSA
- measurementProtocol: Inhibition of PI3Kgamma assessed as inhibition of C5a-induced AKT phosphorylation at Ser473 by cell based assay
measureName: pIC50
Kindly note that pIC50 refers to -log10 of the concentration in mol/L and answer with the value alone.

> print(dat)
                               smilesrecord  measurename  resultvalue
1  Nc1nc2ccc(-c3cncc(NS(=O)(=O)c4ccc(Cl)cc4)c3)cn2n1        pIC50         5.70
2     CS(=O)(=O)c1cncc(-c2ccc3nc(N)nn3c2)c1        pIC50         5.70
3  Nc1nc2ccc(-c3cncc(S(=O)(=O)NCc4ccccc4)c3)cn2n1        pIC50         5.90
4  CC(C)(C)NS(=O)(=O)c1cncc(-c2ccc3nc(N)nn3c2)c1        pIC50         5.70
5  Nc1nc2ccc(-c3cncc(S(=O)(=O)NCC4CC4)c3)cn2n1        pIC50         5.70

Input `CC(C)NS(=O)(=O)c1cncc(-c2ccc3nc(N)nn3c2)c1` , output reported pIC50.
5.80

* * *

- measurementProtocol: Half life in human microsomes
- Assay type: ADME, Microsome
measureName: half-life

> print(dat)
                               smilesrecord  measurename  resultvalue
1  CC(C)NS(=O)(=O)c1cncc(-c2ccc3nc(N)nn3c2)c1    half-life     > 45 min
2  CC(C)(C)NS(=O)(=O)c1cncc(-c2ccc3nc(N)nn3c2)c1    half-life     > 45 min

Here is the next item to consider.
Input `CC(=O)Nc1nc2ccc(-c3cncc(S(C)(=O)=O)c3)cn2n1` , output reported half-life.
> 45 min

* * *

- assaySystem: Phosphatidylinositol 4,5-bisphosphate 3-kinase catalytic subunit delta isoform (Homo sapiens, UniProt O00329)
- Sequence (O00329 whole entry): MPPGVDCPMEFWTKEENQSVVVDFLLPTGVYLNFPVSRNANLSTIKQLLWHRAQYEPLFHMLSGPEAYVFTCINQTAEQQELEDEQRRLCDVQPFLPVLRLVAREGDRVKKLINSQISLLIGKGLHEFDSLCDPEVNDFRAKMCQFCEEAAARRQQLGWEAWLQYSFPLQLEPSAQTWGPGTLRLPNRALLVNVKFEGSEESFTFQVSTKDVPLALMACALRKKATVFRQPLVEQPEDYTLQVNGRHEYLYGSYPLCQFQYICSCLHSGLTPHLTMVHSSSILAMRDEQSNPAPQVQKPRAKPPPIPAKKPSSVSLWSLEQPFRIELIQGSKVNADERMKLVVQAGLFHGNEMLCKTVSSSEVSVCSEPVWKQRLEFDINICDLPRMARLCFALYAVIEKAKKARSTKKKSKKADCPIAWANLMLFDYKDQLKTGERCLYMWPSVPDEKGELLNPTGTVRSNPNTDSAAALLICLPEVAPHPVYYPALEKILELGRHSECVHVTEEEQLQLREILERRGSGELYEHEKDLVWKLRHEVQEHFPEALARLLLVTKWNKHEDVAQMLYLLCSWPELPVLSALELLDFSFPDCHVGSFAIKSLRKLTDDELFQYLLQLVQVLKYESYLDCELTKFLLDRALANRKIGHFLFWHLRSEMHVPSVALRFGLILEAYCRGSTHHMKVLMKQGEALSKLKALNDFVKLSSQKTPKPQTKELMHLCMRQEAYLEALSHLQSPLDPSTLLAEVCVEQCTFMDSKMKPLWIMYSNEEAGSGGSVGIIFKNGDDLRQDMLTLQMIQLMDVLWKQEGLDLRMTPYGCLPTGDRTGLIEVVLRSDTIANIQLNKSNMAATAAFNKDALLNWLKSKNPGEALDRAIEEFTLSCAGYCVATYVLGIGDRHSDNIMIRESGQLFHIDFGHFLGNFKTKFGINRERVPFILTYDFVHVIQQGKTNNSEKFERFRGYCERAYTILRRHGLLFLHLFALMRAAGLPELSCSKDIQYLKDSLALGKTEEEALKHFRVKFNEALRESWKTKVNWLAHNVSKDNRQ
- measurementProtocol: Inhibition of PI3Kdelta by high throughput chemoproteomics binding assay
The entries below come with measured IC50 values attached.

A selection of reference data follows.
> print(dat)
                               smilesrecord  resultvalue
1           CC(=O)Nc1nc2ccc(-c3ccncc3)cn2n1     > 100 µM
2  CS(=O)(=O)Nc1nc2ccc(-c3cncc(S(C)(=O)=O)c3)cn2n1     > 100 µM
3  CC(=O)Nc1nc2c(F)cc(-c3cncc(S(C)(=O)=O)c3)cn2n1      > 20 µM
4  CNS(=O)(=O)c1cccc(-c2ccc3nc(NC(C)=O)nn3c2)c1         1 µM
5  CCCCNS(=O)(=O)c1cccc(-c2ccc3nc(NC(C)=O)nn3c2)c1      1.26 µM

Input `CC(C)(C)NS(=O)(=O)c1cncc(-c2cn3nc(N)nc3cc2F)c1` , output reported IC50.
> 100 µM

Input `CN(C)c1nc2ccc(-c3cncc(S(C)(=O)=O)c3)cn2n1` , output reported IC50.
> 100 µM

Input `CC(=O)Nc1nc2ccc(-c3cncc(CS(N)(=O)=O)c3)cn2n1` , output reported IC50.
> 1 µM

Input `CC(C)NS(=O)(=O)c1cncc(-c2ccc3nc(N)nn3c2)c1` , output reported IC50.
1.58 µM

Input `CC(=O)Nc1nc2ccc(-c3cc(C)c(O)c(C)c3)cn2n1` , output reported IC50.
6.31 µM

Input `CNc1nc2ccc(-c3cncc(S(C)(=O)=O)c3)cn2n1` , output reported IC50.
> 25.1 µM

* * *

- assaySystem: Phosphatidylinositol 4,5-bisphosphate 3-kinase catalytic subunit alpha isoform (Homo sapiens, UniProt P42336)
- measurementProtocol: Inhibition of PI3Kalpha by high throughput chemoproteomics binding assay
pIC50: −log10 of the molar value.
measureName: pIC50

A selection of reference data follows.
> print(dat)
                               smilesrecord  resultvalue
1  CS(=O)(=O)Nc1cccc(-c2ccc3nc(NC(=O)C4CCCCC4)nn3c2)c1       < 4.00
2  CS(=O)(=O)c1cncc(-c2cc(C(F)(F)F)c3nc(N)nn3c2)c1       < 4.00

Input `Nc1nc2ccc(-c3cncc(S(=O)(=O)Nc4ccc(Cl)cc4)c3)cn2n1` , output reported pIC50.
5.40

Input `CC(C)(C)S(=O)(=O)c1cncc(-c2ccc3nc(N)nn3c2)c1` , output reported pIC50.
< 4.80

Input `CC(=O)Nc1nc2ccc(-c3sc(C)nc3C)cn2n1` , output reported pIC50.
5.20

Input `CC(C)NS(=O)(=O)c1cncc(-c2ccc3nc(N)nn3c2)c1` , output reported pIC50.
5.60

Input `COc1ccccc1-c1ccc2nc(NC(C)=O)nn2c1` , output reported pIC50.
< 4.00

Input `CNC(=O)c1cccc(-c2ccc3nc(NC(C)=O)nn3c2)c1` , output reported pIC50.
< 4.30
